Assay overview: Pharmacokinetic analysis of T1-1 as a prodrug of MRS5474: plasma PK in mice after i.v. and p.o. dosing
Type: in vivo, Male CD-1 mice
Test conditions: male, mouse; PO(plasma), T1-1 dosed 13.55 mg/kg, CD-1 mice; analyte = label
Recorded endpoint: AUC(0-inf) (ng·h/mL)
# number only, unit ng·h/mL dropped from output

For the compound shown here, O[C@@H]1[C@H](O)[C@@H]2C[C@@H]2[C@H]1n1cnc2c(NC(C3CC3)C3CC3)nc(Cl)nc21 [MRS5474, reference compound] , give the reported AUC(0-inf).
6990

---

# reported Tmax; entries follow
Assay overview: Pharmacokinetic analysis of T1-1 as a prodrug of MRS5474: plasma PK in mice after i.v. and p.o. dosing
Assay type: in vivo, Male CD-1 mice
Test conditions: male, mouse; PO(plasma), T1-1 dosed 13.55 mg/kg, CD-1 mice; analyte = label
The response must be a number in min with no trailing unit.

Which Tmax is listed for O[C@@H]1[C@H](O)[C@@H]2C[C@@H]2[C@H]1n1cnc2c(NC(C3CC3)C3CC3)nc(Cl)nc21 [MRS5474, reference compound] ?
60

// query Tmax value for entry O=C(NCN(c1nc(Cl)nc2c1ncn2[C@H]1[C@H](O)[C@H](O)[C@@H]2C[C@@H]21)C(C1CC1)C1CC1)c1ccccc1 [Compound T1-1]
30
